Value source: PubChem BioAssay

// reported z-score for each item listed
assay: optical density change of DRC41 E. coli – strain DRC41, OD650, 24 h, E. coli filamentation project, primary screen (AID 1093);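 also: MC1000 strain lacking acrAB efflux and sulA so SOS filamentation is blocked; test concentration not given here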; settings: E. coli DRC41 growth, higher = more signal, called active from +8 up or from −8 down
// return a plain number; no unit text

> print(dat)
                                   compound  readout.kind  numeric.result
1  COc1cc(C(O)C2C=CC3C(=O)NC(=O)C3N2Nc2ccc(Cl)cc2Cl)cc(OC)c1OC (centres undefined)       z-score           -0.66

Data point: "[N-]=[N+]=NCc1ccccc1[C@H]1OC(c2ccc(OCCCO)cc2)=N[C@@]1(Cc1ccccc1N=[N+]=[N-])C(=O)N1CCCCC1" ; z-score = 0.203

Form: compound = "CO[C@H]1O[C@H](CO)[C@@H](OC(=O)Nc2ccc(C(F)(F)F)cc2)[C@H](OC(=O)Nc2ccccc2)[C@H]1OC(=O)Nc1ccccc1" ; z-score = -0.994

Recorded result, "C[N+](C)(C)CCCC[C@@H]1NC(=O)[C@@H]2C[C@H](C(=O)O)[C@H](c3cccc(OCCO)c3)N2C1=O" , z-score: 0.817
